Each entry below carries its recorded growth.
test system: SNB-75 CNS; assay: NCI-60 one-dose screen, 48 h (100 = growth as untreated, 0 = no growth, -100 = all killed); conditions: 10 µM unless noted
This is part of a sample that, as a whole, favours compounds with a hit. Of some 83,000 tested, about 20% had one in any assay.
Answer format: numeric, % implied, no suffix.

Request: Need growth of CCCCc1ccc2nc(NC(=O)OC)[nH]c2c1 , thanks.
Result: 65.1

Request: Need growth of ClCc1cccc2c(CCl)cccc12 , thanks.
Result: 88

---
Request: Need growth of Cc1ccc(C)c(CCO)c1 , thanks.
Result: 95.7

Request: Need growth of C/C(Cc1ccccc1)=N\O , thanks.
Result: 115

Request: Need growth of Cc1cc(C(=O)c2ccccc2)cc(C)c1O , thanks.
Result: 87.8

Request: Need growth of Cc1c(Cl)cccc1N=C=S , thanks.
Result: 70.6

Request: Need growth of Cc1[nH]n(-c2ccccc2)c(=O)c1C=NC(=S)C(N)=S , thanks.
Result: 87.5

Request: Need growth of OCC1CCC(O)C(CO)N1 (centres undefined) , thanks.
Result: 70.2

Request: Need growth of Cc1cc(NC(=O)c2ccccc2)c(Cl)cc1N , thanks.
Result: 100

Request: Need growth of CCN1CCCC(N2c3ccccc3Sc3ccccc32)C1 (centres undefined) , thanks.
Result: 92.8

Request: Need growth of CCOC(=O)/C(O)=C(\C=N\C(=S)Nc1ccc(Cl)c(Cl)c1)C(=O)OCC , thanks.
Result: 82

====

Test system: U251 CNS
Assay: NCI-60 one-dose screen, 48 h (100 = growth as untreated, 0 = no growth, -100 = all killed)
Conditions: 10 µM unless noted
Method: Growth inhibition of the U251 human tumor cell line is measured as a screen for anti-cancer activity. Cells are grown in 96 well plates and exposed to the test compound for 48 hours. Compounds are tested at a single concentration, which is 10^-5 M for most compounds. The reported endpoint is percent growth (GI% or GIPRCNT), where numbers from 0 - 100% represent growth inhibition, and numbers from -100% - 0 represent cell death. For example, a value of 40 represents 60% growth inhibition. […]
About 83,000 compounds went through this panel and 20% of them were active in at least one assay; those are over-represented in the sample as a whole. Calls of active or inactive are those of the source. Rule for the calls: active = growth percent below 10; inactive = the rest.
parameter_measured: growth

Known results for compounds:
Request: Need growth of CC(=O)NNC(=S)N/C=C/c1c(C)ccc([N+](=O)[O-])c1[N+](=O)[O-] , thanks.
Result: 112% (inactive)

Request: Need growth of CCC(=O)Oc1ccc2ccccc2c1 , thanks.
Result: 93.9% (inactive)

Request: Need growth of Nc1cc(F)ccc1[N+](=O)[O-] , thanks.
Result: 106% (inactive)

Request: Need growth of O=C(O)c1cccc(-n2ncc(Cl)c(Cl)c2=O)c1 , thanks.
Result: 101% (inactive)

Request: Need growth of COc1cc(C(=O)NC(=S)NCc2ccncc2)cc(OC)c1OC , thanks.
Result: 98.7% (inactive)

---
Request: Need growth of O=C(NCc1ccco1)Nc1cccc2c(NC(=O)NCc3ccco3)cccc12 , thanks.
Result: 64.8% [100 µM] (inactive)

Request: Need growth of CCNc1ncnc2[nH]ncc12 , thanks.
Result: 101% (inactive)

Request: Need growth of COc1ccc(-c2csc(NC(=O)Nc3nc(-c4ccc(OC)cc4)cs3)n2)cc1 , thanks.
Result: 79.5% (inactive)

Request: Need growth of Oc1cc2ccccc2c(-c2c(O)c(O)cc3ccccc23)c1O , thanks.
Result: 33.9% (inactive)

Request: Need growth of O=C(O)Cc1cccc2ccccc12 , thanks.
Result: 95.1% (inactive)

Request: Need growth of NNC(=O)N/N=C1\C(=O)N(c2nccs2)C(=O)C(=O)C1c1nc2ccccc2s1 (stereo not given) , thanks.
Result: 80% (inactive)

Request: Need growth of Cc1cc(C(=O)NN)c(C#N)c(=O)[nH]1 , thanks.
Result: 104% (inactive)

====

test system: MDA-MB-231 breast; assay: NCI-60 one-dose screen, 48 h; conditions: 10 µM unless noted
Compounds without any hit were thinned out: in the full panel of roughly 83,000, 20% have a hit. Calls of active or inactive are those of the source. Rule for the calls: active = growth percent below 10; inactive = the rest.
Bench note: report the call from True (active), False (inactive)

Worked cases, answers included:
Request: Any idea what this test logged for c1ccc(Oc2c3ccccc3nc3ccccc23)cc1 ?
Result: False

Request: Any idea what this test logged for CN(C)c1ccc(O)c2c1CC1CC3C(N(C)C)C(=O)C(C(N)=O)=C(O)C3(O)C(=O)C1=C2O (stereo not drawn) ?
Result: False

Request: Any idea what this test logged for O=C1NC(=O)C(c2ccccc2)O1 (stereo not drawn) ?
Result: False

Request: Any idea what this test logged for CC(=O)N(CCCCCCN(C(C)=O)C(C)=O)C(C)=O ?
Result: False

Request: Any idea what this test logged for Cc1ccc(C2CCCCC2)cc1Br ?
Result: False

Request: Any idea what this test logged for Cc1ccc[n+](CCC(N)=O)c1 ?
Result: False

Request: Any idea what this test logged for C=C1CC2(OC1=O)C(=O)N(C)c1ccc(I)cc12 (stereo not drawn) ?
Result: True

Request: Any idea what this test logged for CCOc1ccc2c(c1)c(C)cc(C)[n+]2CC ?
Result: False

Now look at this one.
Request: Any idea what this test logged for C=CCc1cc(OC)c(OC)c(OC)c1 ?
Result: False

====

test system: UACC-257 melanoma; assay: NCI-60 one-dose screen, 48 h (100 = growth as untreated, 0 = no growth, -100 = all killed); conditions: 10 µM unless noted
Compounds without any hit were thinned out: in the full panel of roughly 83,000, 20% have a hit. Calls of active or inactive are those of the source. Rule for the calls: active = growth percent below 10; inactive = the rest.
Each entry below carries its recorded growth.

Known results for molecules:
Request: Need growth of CCOc1ccc(C(=O)O)cc1 , thanks.
Result: 104% (inactive)

Request: Need growth of CC(=O)N=c1ccc2nc3c(cc(N)c4ccccc43)oc-2c1 , thanks.
Result: -81.5% (active)

Request: Need growth of OCCOc1ccc(-c2cc(-c3ccccn3)nc(-c3ccccn3)c2)cc1 , thanks.
Result: 1.35% (active)

Request: Need growth of CN(C)Cc1ccccn1 , thanks.
Result: 99% (inactive)

---
Request: Need growth of C/C(=N\Nc1ccc([N+](=O)[O-])cc1[N+](=O)[O-])c1ccc(Br)cc1 , thanks.
Result: 87.9% (inactive)

Request: Need growth of CC(=O)Nc1ccc(O)c(C)c1 , thanks.
Result: 87.8% (inactive)

====

test system: RPMI-8226 leukemia; assay: NCI-60 one-dose screen, 48 h (100 = growth as untreated, 0 = no growth, -100 = all killed); settings: 10 µM unless noted
The panel holds about 83,000 compounds, 20% with a hit somewhere; the sample as a whole holds those more often. Active and inactive are the calls of the source. Rule for the calls: active = growth percent below 10; inactive = the rest.
Each entry below carries its recorded growth.

Known results for compounds:
Request: Need growth of COc1c(CNC(=O)CCl)cc2[nH]c(C)cc2c1CNC(=O)CCl , thanks.
Result: 58.5% (inactive)

Request: Need growth of CCCCc1ccc2nc(NC(=O)OC)[nH]c2c1 , thanks.
Result: -26.4% (active)

Request: Need growth of COc1ccc2c(Cl)cc(NC(=O)Nc3c(C)cccc3C)nc2c1 , thanks.
Result: 73% (inactive)

Request: Need growth of CSc1nc2[nH]ncc2c(=O)[nH]1 , thanks.
Result: 119% (inactive)

Request: Need growth of CN(C)c1ccc(/C=C/C(=O)c2ccc(NC(N)=O)cc2)cc1 , thanks.
Result: 63.8% (inactive)

Then this compound:
Request: Need growth of CC1(C)CC(=O)C=C(N)C1 , thanks.
Result: 178% (inactive)

====

test system: NCI-H522 lung; assay: NCI-60 one-dose screen, 48 h; settings: 10 µM unless noted
This is part of a sample that, as a whole, favours compounds with a hit. Of some 83,000 tested, about 20% had one in any assay. Active and inactive are the calls of the source. Rule for the calls: active = growth percent below 10; inactive = the rest.
Bench note: report the call from active, inactive

Request: Any idea what this test logged for CCCCCCCCCCCCCCCCCC(=O)NCCNC(=O)CCCCCCCCCCCCCCCCC ?
Result: inactive

Request: Any idea what this test logged for CC(=O)OC/C(C)=C\CC(C)COC(C)=O (stereo not drawn) ?
Result: inactive

Request: Any idea what this test logged for O=C1NCC2CCCC1C2 (stereo not drawn) ?
Result: inactive

Request: Any idea what this test logged for CC(CC(CCC(=O)O)(c1ccccc1)c1ccccc1)N(C)C (stereo not drawn) ?
Result: inactive

---
Request: Any idea what this test logged for NS(=O)(=O)c1cc(=O)[nH]c(=O)[nH]1 ?
Result: inactive

Request: Any idea what this test logged for CCOC(=O)/C(C)=C\c1ccc(OC)c(OC)c1 ?
Result: inactive

Request: Any idea what this test logged for CCOC(OCC)C(=O)c1ccccc1 ?
Result: inactive

Request: Any idea what this test logged for CCOC(=O)c1ccc(Nc2sc(C(=O)c3ccc(Br)cc3)c(N)c2C#N)cc1 ?
Result: active

Request: Any idea what this test logged for CN1CCCN(C(c2ccccc2)c2ccc(Cl)cc2)CC1 (stereo not drawn) ?
Result: inactive

Request: Any idea what this test logged for ON1CCCC1 ?
Result: inactive

Request: Any idea what this test logged for O=S(=O)(O)c1ccc(O)c(C2CCCCC2)c1 ?
Result: inactive

Request: Any idea what this test logged for CS(=O)CC(=N\O)/C(CS(C)=O)=N\O (stereo not drawn) ?
Result: inactive
